// data source = patent US8232269B2

- ASSAY SYSTEM: Progesterone Receptor (PR) (Homo sapiens, UniProt P06401)
- Construct: endogenous in cells
- Sequence (P06401 whole entry): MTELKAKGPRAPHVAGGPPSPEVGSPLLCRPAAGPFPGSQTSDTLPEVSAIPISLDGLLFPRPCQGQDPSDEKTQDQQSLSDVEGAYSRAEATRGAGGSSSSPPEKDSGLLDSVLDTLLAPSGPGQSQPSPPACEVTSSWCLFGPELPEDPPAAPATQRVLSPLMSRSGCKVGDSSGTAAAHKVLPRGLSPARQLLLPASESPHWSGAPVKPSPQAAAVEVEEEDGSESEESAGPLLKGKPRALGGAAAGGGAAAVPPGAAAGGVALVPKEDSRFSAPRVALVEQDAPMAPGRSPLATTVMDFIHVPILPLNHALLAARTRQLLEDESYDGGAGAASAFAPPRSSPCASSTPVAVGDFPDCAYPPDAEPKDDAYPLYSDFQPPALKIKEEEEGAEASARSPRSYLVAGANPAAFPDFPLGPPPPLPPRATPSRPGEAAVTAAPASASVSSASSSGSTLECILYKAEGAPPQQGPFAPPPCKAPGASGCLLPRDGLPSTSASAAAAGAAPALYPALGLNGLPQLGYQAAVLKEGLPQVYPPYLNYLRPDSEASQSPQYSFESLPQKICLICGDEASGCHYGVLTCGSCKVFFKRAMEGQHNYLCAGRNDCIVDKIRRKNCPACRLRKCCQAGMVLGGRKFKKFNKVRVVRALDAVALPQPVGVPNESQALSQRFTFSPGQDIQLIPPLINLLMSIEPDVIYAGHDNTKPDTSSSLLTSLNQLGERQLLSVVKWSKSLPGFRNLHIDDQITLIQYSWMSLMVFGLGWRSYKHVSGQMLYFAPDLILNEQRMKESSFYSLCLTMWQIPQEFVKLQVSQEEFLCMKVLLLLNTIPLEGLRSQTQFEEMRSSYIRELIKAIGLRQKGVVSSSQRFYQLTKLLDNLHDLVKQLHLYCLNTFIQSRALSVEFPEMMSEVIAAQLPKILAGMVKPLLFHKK
- ASSAY SUMMARY: In vitro functional assay for progesterone receptor (PR) antagonists: inhibition of progesterone-induced alkaline phosphatase expression in T47D cells
- STUDY CONDITIONS: antagonist format, 5 nM progesterone, Ki calculated from IC50 with the Cheng-Prusoff equation
So I've got a bunch of compounds here, and I need their log10 of Ki values.
Each number you see is log10 of Ki, and the unit inside the log is nM.

Fill in the blank: the reported log10 of Ki of CCNC(=O)c1c(C)c(-c2ccc(C#N)cc2)nn1C1CCOC1 (single isomer, unassigned) [Example 76 Ent 2] is ____.
2.17

Returns the measured log10 of Ki for the input compound. Input: CCNC(=O)c1c(C#N)c(-c2ccc(C#N)cc2)nn1C(C)C [Example 89]
0.89

Entry under review: CC(C)n1nc(-c2ccc(C#N)cc2)c(C2CC2)c1C(=O)NCC(C)(C)O [Example 1] . Reported log10 of Ki?
1.30

I have this compound here, CC(C)n1nc(-c2ccc(C#N)cc2)c(C2CC2)c1C(=O)NCc1cnn(C)c1 [Example 30] , and I need its recorded log10 of Ki.
1.49

Given CC(C)n1nc(-c2ccc(C#N)cc2)c(C2CC2)c1C(=O)NC1CCC1 [Example 50] , state its recorded log10 of Ki.
0.56

Given the compound CC(C)n1nc(-c2ccc(C#N)cc2)c(C2CC2)c1C(=O)NC1CCCOC1 (racemic) [Example 40] , what is its reported log10 of Ki?
1.24

Give its log10 of Ki value. Item: CC(C)n1nc(-c2ccc(C#N)cc2)c(C2CC2)c1C(=O)NC1CN(C(=O)OC(C)(C)C)C1 [Example 7]
0.99

Sample CC(C)C(=O)N1CC(NC(=O)c2c(C3CC3)c(-c3ccc(C#N)cc3)nn2C(C)C)C1 [Example 16] — what was its log10 of Ki?
1.63

Query: log10 of Ki; subject: CC(C)n1nc(-c2ccc(C#N)cc2)c(C2CC2)c1C(=O)N[C@@H]1CC[C@H](O)C1 [Example 31]
1.56

Can you look up the measured log10 of Ki of Cc1c(-c2ccc(C#N)cc2)nn(C2CCC2)c1C(=O)NC[C@H](C)O [Example 72] for me?
1.12

State the recorded log10 of Ki for this entry: CC(C)n1nc(-c2ccc(C#N)cc2)c(C2CC2)c1C(=O)NCCC(F)(F)F [Example 22]
0.82

Which log10 of Ki is listed for Cc1c(-c2ccc(C#N)cc2)nn(C2CCOC2)c1C(=O)NC(C)C (single isomer, unassigned) [Example 77 Ent 2] ?
2.01

Can you share its log10 of Ki? I mean this compound: CCc1c(-c2ccc(C#N)cc2)nn(C(C)CC)c1C(=O)NC1CC1 (racemic) [Example 104]
1.25

Which log10 of Ki is listed for CC(C)n1nc(-c2ccc(C#N)cc2)c(C2CC2)c1C(=O)NCCCN1CCCC1=O [Example 26] ?
1.94

Value lookup for log10 of Ki; key = CCc1c(-c2ccc(C#N)cc2)nn(C(C)CC)c1C(=O)NC(C)C (racemic) [Example 102]
1.17

For CCc1c(-c2ccc(C#N)cc2)nn(C(C)C)c1C(=O)NCC(C)(C)O [Example 118] , what is its reported log10 of Ki?
1.74

Need log10 of Ki, item CC(C)n1nc(-c2ccc(C#N)cc2)c(C2CC2)c1C(=O)NCC(C)(C)C [Example 34]
1.28

So what's the measured log10 of Ki for this one? CCCNC(=O)c1c(C2CC2)c(-c2ccc(C#N)cc2)nn1C(C)C [Example 20]
0.58

Data request, read-out log10 of Ki, for CC(C)n1nc(-c2ccc(C#N)cc2)c(C2CC2)c1C(=O)NC1CNC1 [Example 10]
2.45

What does the record list as log10 of Ki for CC(C)n1nc(-c2ccc(C#N)cc2)c(C2CC2)c1C(=O)NC1CCC(=O)N(C)C1 (racemic) [Example 41] ?
1.40

Please give the measured log10 of Ki for this compound: CC(C)n1nc(-c2ccc(C#N)cc2)c(C2CC2)c1C(=O)NC1CNC(=O)C1 (racemic) [Example 45]
2.02

I am curious: what log10 of Ki value has been reported for CNC(=O)CNC(=O)c1c(C2CC2)c(-c2ccc(C#N)cc2)nn1C(C)C [Example 25] ?
1.39

Look at this compound and give its reported log10 of Ki. Cc1cc(-c2nn(C(C)C)c(C(=O)NC[C@H](C)O)c2C)ccc1C#N [Example 63]
0.80

Field request: log10 of Ki | item: CCNC(=O)c1c(C)c(-c2ccc(C#N)c(C)c2)nn1C(C)C [Example 65]
0.55

Look at this compound and give its reported log10 of Ki. CC(C)n1nc(-c2ccc(C#N)cc2)c(C2CC2)c1C(=O)NC[C@H]1CCCO1 [Example 53]
0.87
